- Test system: SK-OV-3 ovarian
- assay_name: NCI tumour cell line growth inhibition, 48 h
Exercise: for every item that follows, state its recorded TGI.

// worked examples, TGI included
CC1=NN(c2cccc(Cl)c2)C2(C1=Cc1ccc(O)cc1)C(Cl)C(=O)N2c1nc2ccccc2s1 (centres undefined) :: 57.4 µM
COc1cc2cc(C(=O)N3CC(COS(C)(=O)=O)c4ccc(NC(=O)OCc5ccccc5)cc43)[nH]c2c(OC)c1OC (centres undefined) :: > 100 µM
CN(C)C(=O)Nc1nc2cc(Cl)c(Cl)cc2[nH]1 :: > 56.6 µM
N#CC1(C#N)C(C#N)(C#N)C1(C#N)C(N)=O :: > 100 µM

I would be grateful if you could provide TGI for each of the following entries.
1. CNC(=O)NCC1OC(n2cnc3c(NC(=O)Nc4ccccc4)ncnc32)C(O[Si](C)(C)C(C)(C)C)C1O[Si](C)(C)C(C)(C)C (centres undefined)
2. CN1CCN(Cc2c[nH]c3c2C(=O)c2c(c(O)c4ccccc4c2O)C3=O)CC1
3. CCCCc1ccc(Nc2ncc3ncn(COCCO)c3n2)cc1
4. C=CC(=O)N1C/C(=C\c2ccc(Cl)c(Cl)c2)C(=O)/C(=C/c2ccc(Cl)c(Cl)c2)C1
5. CCOC(=O)C1CC(C(=O)c2ccccc2)N2c3ccccc3-c3ccccc3C12 (centres undefined)
6. O=c1cccccc1[O-].O=c1cccccc1[O-].O=c1cccccc1[O-].[Eu+3]
7. C[C@H]1[C@H](C)N1CC(O)Cn1ccnc1[N+](=O)[O-] (some centres undefined)
8. O[C@@H]1C=C[C@]23CCN(Cc4cc5c(cc42)OCO5)[C@@H]3C1

(A)
1. > 100 µM
2. 55.2 µM
3. > 100 µM
4. 1.61 µM
5. > 100 µM
6. > 100 µM
7. > 100 µM
8. > 100 µM

I would be grateful if you could provide TGI for each of the following entries.
1. CC(=O)O[C@H]1CC[C@@]2(C)C(=CC[C@@H]3[C@@H]2CC[C@]2(C)C(=N/O)/C(=C\c4ccccc4)C[C@@H]32)C1
2. COc1ccc(-c2c(C)c(C(=O)O)nc(-c3ccc4c(O)c(OC)c5c(c4n3)=NC(C)(C)N=5)c2N)c(O)c1OC
3. COc1ccc(C2C3=C(N=C4SC(C(C)=O)=C(C)N42)c2ccccc2CC3)cc1 (centres undefined)
4. COc1ccc(-c2cc(=O)n(-c3nc4ccccc4[nH]3)[nH]2)cc1OC
5. O=C(CCN1CCOCC1)/C(=C/c1ccccc1)c1ccccc1
6. C/C(CC(=O)Nc1cccc(Cl)c1C)=N\NC(N)=S
7. FC(F)(F)c1cc(N(C2c3ccccc3C=Cc3ccccc32)P(Cl)Cl)cc(C(F)(F)F)c1

(A)
1: > 100 µM; 2: 65.6 µM; 3: > 100 µM; 4: > 100 µM; 5: 43.3 µM; 6: > 100 µM; 7: 69.8 µM
